Entry source: patent US20200115447A1

Target: T1, soluble human IL-6 receptor (human, UniProt P08887 20-357)
T1 construct: also called hsIL-6R
T1 sequence: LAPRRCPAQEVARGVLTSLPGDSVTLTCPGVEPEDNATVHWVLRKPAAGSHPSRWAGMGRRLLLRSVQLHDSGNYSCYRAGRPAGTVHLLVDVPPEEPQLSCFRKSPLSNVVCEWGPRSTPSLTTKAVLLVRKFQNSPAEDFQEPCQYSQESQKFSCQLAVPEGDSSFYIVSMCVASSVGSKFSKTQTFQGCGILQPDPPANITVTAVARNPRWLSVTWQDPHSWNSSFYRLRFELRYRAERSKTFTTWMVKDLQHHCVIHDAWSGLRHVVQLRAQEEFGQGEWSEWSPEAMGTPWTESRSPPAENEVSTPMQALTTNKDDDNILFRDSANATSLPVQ
Test: SPR (Biacore T100), antibody captured via protein A/G on a CM5 chip, human IL-6 receptor injected for 3 min, 1.2 mM CaCl2, pH 7.4, 37 C
quantityMeasured: binding result

* 6RC1IgG_010 (antibody, V domains shown) VH: QVQLVQSGAEVKKPGSSVKVSCKASGGTFSSYAISWVRQAPGQGLEWMGGIIPIFGTANYAQKFQGRVTITADESTSTAYMELSSLRSEDTAVYYCARAAFLEWPIWGSEYFQHWGQGTLVTVSS VL: DIQMTQSPSSLSASVGDRVTITCRASQSIEDDLAWYQQKPGKAPKLLIYHASSLQSGVPSRFSGSGSGTDFTLTISSLQPEDFATYYCQQRDSYPLTFGQGTKVEIKR | binds
